Would you mind telling me the reported DGI-2 (OD) of each entry?
Assay system: T1, DGI-2 polypeptide (UniProt Q15004 1-111, limits assumed)
T1 construct: Vector-derived residues or tag of pIVEX2.3 are not described for this construct; also called KIAA0101
T1 sequence (looked up): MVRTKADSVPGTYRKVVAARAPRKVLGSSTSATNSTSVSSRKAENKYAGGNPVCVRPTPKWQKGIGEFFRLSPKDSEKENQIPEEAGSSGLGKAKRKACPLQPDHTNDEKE
Method notes: phage ELISA, 405 nm; DGI-2 coated
Method: For analysis of individual target binders, colonies were picked and phage prepared as described above using helper phage, M13KO7. Ninety-six-well microtiter plates were coated with 500 ng/well of specific target protein, 500 ng/well lactate dehydrogenase (LDH) irrelevant or non-specific target, 500 ng/well of positive control antibody raised against ETAG, and negative control of non-fat milk powder-PBS 2% at 4° C. overnight. […] Plates were analyzed at 405 nm. […]
// return numeric value only (unit: OD, not printed)

For record DGI-2-40F-3-D9 (not shown: phage gene III coat protein (pCANTAB5E)) peptide: RRTSADTDQLSRWEGAQAFSSLRSALSERLDSLRPGLPPSAAAGAPVPYPDPLEPRP the listed DGI-2 (OD) is 1.1

For record VAFGEQIRVAMAGTLWQRWRAAAGAPVPYPDPLEPRP (not shown: phage gene III coat protein (pCANTAB5E)) [DGI-2-20R-3-D5] the listed DGI-2 (OD) is 1.5

For record SWRLWVSGELQGDRRKGLRGAAAGAPVPYPDPLEPRP (not shown: phage gene III coat protein (pCANTAB5E)) [DGI-2-20R-3-B7] the listed DGI-2 (OD) is 3.1
